These measurements were taken from patent US20240261249A1.

# Tested on: Phospho-eIF2α (Ser51)
# ASSAY METHOD TEXT: Phospho-eIF2α (Ser51) Sandwich ELISA in K562 cells
# Assay type: cell-based
# CONDITION INFO: Homo sapiens, K562, 6 h, serum-free RPMI, 10 μM compound, control = 1, read-out: eIF2α phosphorylation, absorbance standardized to control (DMSO-treated) set to 1, at 10 μM
Quick reference for activity at 10 µM among some molecules

// solved cases for activity at 10 µM follow
{"MOLECULE": "N#Cc1ccc(O[C@H]2CC[C@H](Nc3c(Nc4cc(C#N)cc(C(F)(F)F)c4)c(=O)c3=O)CC2)cc1 [Compound 84]", "OBSERVED RESULT": "143%"}
{"MOLECULE": "O=c1c(Nc2ccc(Cl)cc2)c(N[C@H]2CC[C@H](Oc3ccc([N+](=O)[O-])cc3)CC2)c1=O [Compound 44]", "OBSERVED RESULT": "147%"}
{"MOLECULE": "COc1cccc(Nc2c(N[C@H]3CC[C@H](Oc4ccc(S(C)(=O)=O)cc4)CC3)c(=O)c2=O)c1 [Compound 36]", "OBSERVED RESULT": "60%"}
{"MOLECULE": "CS(=O)(=O)c1ccc(O[C@H]2CC[C@H](Nc3c(Nc4cccc(F)c4)c(=O)c3=O)CC2)cc1 [Compound 16]", "OBSERVED RESULT": "84%"}

Query molecule follows.
Lookup: Find activity at 10 µM for O=c1c(Nc2ccccc2F)c(N[C@H]2CC[C@H](Oc3ccc([N+](=O)[O-])cc3)CC2)c1=O [Compound 64] on Phospho-eIF2α (Ser51) and write it down.
Found: 133%

* * *

# Tested on: Phospho-eIF2α (Ser51)
# ASSAY METHOD TEXT: Phospho-eIF2α (Ser51) Sandwich ELISA in K562 cells
# Format: cell-based
# CONDITION INFO: Homo sapiens, K562, 6 h, serum-free RPMI, 10 μM compound, control = 1, read-out: eIF2α phosphorylation, absorbance standardized to control (DMSO-treated) set to 1, at 10 μM
A collection of molecules and their measured activity at 10 µM
Write the answer as a number in %, unit excluded.

The examples below pair each entry with its known result.
{"MOLECULE": "COc1ccccc1Nc1c(N[C@H]2CC[C@H](Oc3ccc(C(F)(F)F)cc3)CC2)c(=O)c1=O [Compound 78]", "UNITS OF MEASURE": "%", "activity at 10 µM": 213}
{"MOLECULE": "N#Cc1ccc(O[C@H]2CC[C@H](Nc3c(Nc4ccccc4F)c(=O)c3=O)CC2)cc1 [Compound 63]", "UNITS OF MEASURE": "%", "activity at 10 µM": 75}

Lookup: State its activity at 10 µM for this molecule: O=c1c(Nc2ccccc2C(F)(F)F)c(N[C@H]2CC[C@H](Oc3ccc([N+](=O)[O-])cc3)CC2)c1=O [Compound 72]
Found: 149

Lookup: State its activity at 10 µM: NS(=O)(=O)c1ccc(O[C@H]2CC[C@H](Nc3c(Nc4cccc(Cl)c4)c(=O)c3=O)CC2)cc1 [Compound 22]
Found: 219

Lookup: # return recorded activity at 10 µM for entry N#Cc1cc(Nc2c(N[C@H]3CC[C@H](Oc4ccc(C(F)(F)F)cc4)CC3)c(=O)c2=O)cc(C(F)(F)F)c1 [Compound 83]
Found: 184

Lookup: Return the recorded activity at 10 µM value; entry: CC(C)(C)c1ccccc1Nc1c(N[C@H]2CC[C@H](Oc3ccc([N+](=O)[O-])cc3)CC2)c(=O)c1=O [Compound 76]
Found: 139

Lookup: Could you please provide reported activity at 10 µM for O=c1c(Nc2ccccc2Cl)c(N[C@H]2CC[C@H](Oc3ccc([N+](=O)[O-])cc3)CC2)c1=O [Compound 68] ? Thanks!
Found: 209

* * *

# Test system: Phospho-eIF2α (Ser51)
# ASSAY METHOD TEXT: Phospho-eIF2α (Ser51) Sandwich ELISA in K562 cells
# Assay type: cell-based
# CONDITION INFO: Homo sapiens, K562, 6 h, serum-free RPMI, 10 μM compound, control = 1, read-out: eIF2α phosphorylation, absorbance standardized to control (DMSO-treated) set to 1, at 10 μM
READOUT KIND: activity at 10 µM
Your answer should be a number followed by the unit of measure.

Reference set (5 entries):
{"MOLECULE": "N#Cc1ccc(O[C@H]2CC[C@H](Nc3c(Nc4ccc(C(F)(F)F)cc4)c(=O)c3=O)CC2)cc1 [Compound 47]", "activity at 10 µM": "51%"}
{"MOLECULE": "COC(=O)c1ccc(Nc2c(N[C@H]3CC[C@H](Oc4ccc(C(F)(F)F)cc4)CC3)c(=O)c2=O)cc1 [Compound 58]", "activity at 10 µM": "97%"}
{"MOLECULE": "O=c1c(Nc2ccc(C(F)(F)F)cc2)c(N[C@H]2CC[C@H](Oc3ccc(C(F)(F)F)cc3)CC2)c1=O [Compound 46]", "activity at 10 µM": "71%"}
{"MOLECULE": "O=c1c(Nc2cccc(Cl)c2)c(N[C@H]2CC[C@H](Oc3ccc(C(F)(F)F)cc3)CC2)c1=O [Compound 18]", "activity at 10 µM": "71%"}
{"MOLECULE": "COc1cccc(Nc2c(N[C@H]3CC[C@H](Oc4ccc([N+](=O)[O-])cc4)CC3)c(=O)c2=O)c1 [Compound 35]", "activity at 10 µM": "105%"}

Now for another entry.
Lookup: Consider the molecule O=c1c(Nc2ccccc2F)c(N[C@H]2CC[C@H](Oc3ccc(C(F)(F)F)cc3)CC2)c1=O [Compound 62] . State its measured activity at 10 µM.
Found: 182%

* * *

We begin with a simple list: items and their reported activity at 10 µM.
# Tested on: Phospho-eIF2α (Ser51)
# ASSAY METHOD TEXT: Phospho-eIF2α (Ser51) Sandwich ELISA in K562 cells
# Type: cell-based
# CONDITION INFO: Homo sapiens, K562, 6 h, serum-free RPMI, 10 μM compound, control = 1, read-out: eIF2α phosphorylation, absorbance standardized to control (DMSO-treated) set to 1, at 10 μM
# unit: % | format: bare number

Example entries and their recorded answers appear below.
{"MOL": "CC(C)(C)c1ccc(Nc2c(N[C@H]3CC[C@H](Oc4ccc(C#N)cc4)CC3)c(=O)c2=O)cc1", "ASSAYED TARGET": "Phospho-eIF2α (Ser51)", "activity at 10 µM / %": 182}
{"MOL": "O=c1c(Nc2ccc(F)cc2)c(N[C@H]2CC[C@H](Oc3ccc([N+](=O)[O-])cc3)CC2)c1=O", "ASSAYED TARGET": "Phospho-eIF2α (Ser51)", "activity at 10 µM / %": 82}
{"MOL": "O=c1c(Nc2cccc(Cl)c2)c(N[C@H]2CC[C@H](Oc3ccc([N+](=O)[O-])cc3)CC2)c1=O", "ASSAYED TARGET": "Phospho-eIF2α (Ser51)", "activity at 10 µM / %": 190}
{"MOL": "O=c1c(Nc2ccccc2)c(N[C@H]2CC[C@H](Oc3ccc(C(F)(F)F)cc3)CC2)c1=O", "ASSAYED TARGET": "Phospho-eIF2α (Ser51)", "activity at 10 µM / %": 95}
{"MOL": "CS(=O)(=O)c1ccc(O[C@H]2CC[C@H](Nc3c(Nc4ccc(F)cc4)c(=O)c3=O)CC2)cc1", "ASSAYED TARGET": "Phospho-eIF2α (Ser51)", "activity at 10 µM / %": 62}

// below: activity at 10 µM requested for another compound
Lookup: Query activity at 10 µM for N#Cc1ccc(O[C@H]2CC[C@H](Nc3c(Nc4ccccc4)c(=O)c3=O)CC2)cc1
Found: 88

* * *

# Test system: K562 cell line
# ASSAY METHOD TEXT: CCK-8 anti-proliferative assay, K562
# Type: cell-based
# CONDITION INFO: Homo sapiens, 72 h; K562, culture for 3 days, CCK-8, Table 2; read-out: IC50
READOUT KIND: IC50 (µM)
Use µM as the unit, but write only the number.

{"MOL": "CS(=O)(=O)c1ccc(O[C@H]2CC[C@H](Nc3c(Nc4cc(C#N)cc(C(F)(F)F)c4)c(=O)c3=O)CC2)cc1", "READOUT KIND": "IC50", "OBSERVED RESULT": 14.2}

Lookup: Return IC50 for the following compound: O=c1c(Nc2cccc(C(F)(F)F)c2)c(N[C@H]2CC[C@H](Oc3ccc([N+](=O)[O-])cc3)CC2)c1=O
Found: 12.2

* * *

# Test system: Phospho-eIF2α (Ser51)
# ASSAY METHOD TEXT: Phospho-eIF2α (Ser51) Sandwich ELISA in K562 cells
# Format: cell-based
# CONDITION INFO: Homo sapiens, K562, 6 h, serum-free RPMI, 10 μM compound, control = 1, read-out: eIF2α phosphorylation, absorbance standardized to control (DMSO-treated) set to 1, at 10 μM
Rule: measured activity at 10 µM below 200% gets criterion met; anything equal to or greater than 200% gets criterion not met.

{"MOL": "CC(C)(C)c1cccc(Nc2c(N[C@H]3CC[C@H](Oc4ccc(S(C)(=O)=O)cc4)CC3)c(=O)c2=O)c1", "CLASS LABEL": "criterion met"}
{"MOL": "COc1ccc(Nc2c(N[C@H]3CC[C@H](Oc4ccc([N+](=O)[O-])cc4)CC3)c(=O)c2=O)cc1", "CLASS LABEL": "criterion not met"}
{"MOL": "N#Cc1cc(Nc2c(N[C@H]3CC[C@H](Oc4ccc([N+](=O)[O-])cc4)CC3)c(=O)c2=O)cc(C(F)(F)F)c1", "CLASS LABEL": "criterion met"}
{"MOL": "COc1ccccc1Nc1c(N[C@H]2CC[C@H](Oc3ccc(S(C)(=O)=O)cc3)CC2)c(=O)c1=O", "CLASS LABEL": "criterion met"}
{"MOL": "NS(=O)(=O)c1ccc(O[C@H]2CC[C@H](Nc3c(Nc4cccc(C(F)(F)F)c4)c(=O)c3=O)CC2)cc1", "CLASS LABEL": "criterion met"}

Lookup: activity at 10 µM under 200%? Item: COc1ccccc1Nc1c(N[C@H]2CC[C@H](Oc3ccc(C#N)cc3)CC2)c(=O)c1=O
Found: criterion not met

Lookup: Does this compound meet the criterion activity at 10 µM < 200%? COc1cccc(Nc2c(N[C@H]3CC[C@H](Oc4ccc(C#N)cc4)CC3)c(=O)c2=O)c1
Found: criterion met
